Value source: patent US20120107330A1

- assay target: T1, human TNFR1 (recombinant, R&D Systems cat no. 636-R1/CF, biotinylated) (human, UniProt P19438 30-211, limits assumed, biotinylated with EZ-Link NHS-LC-LC-biotin)
- T1 construct: it is not tied to the BIAcore reagent; also called p55; hTNFR1
- T1 sequence (looked up): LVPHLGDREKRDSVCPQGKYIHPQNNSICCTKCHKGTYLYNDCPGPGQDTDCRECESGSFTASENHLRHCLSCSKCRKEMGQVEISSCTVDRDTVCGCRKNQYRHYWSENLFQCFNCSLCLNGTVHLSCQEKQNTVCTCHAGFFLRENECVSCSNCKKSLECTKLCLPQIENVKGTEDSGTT
- test protocol: BIAcore, TNFR1 (species not given, taken as human)
recorded endpoint: kon (M⁻¹ s⁻¹)
Please respond with the number in M⁻¹ s⁻¹ and leave the unit unwritten.

As a guide, the following entries are already answered.
- binder: "DMS0135 (bispecific antibody, anti-TNFR1 dAb / AlbudAb in-line fusion) EVQLLESGGGLVQPGGSLRLSCAASGFTFFKYSMGWVRQAPGKGLEWVSQISDTADRTYYSHSVKGRFTISRDNSKNTLYLQMNSLRAEDTAVYYCAIYTGRWVPFEYWGQGTLVTVSSASTDIQMTQSPSSLSASVGDRVTITCRASRPIGTTLSWYQQKPGKAPKLLILWNSRLQSGVPSRFSGSGSGTDFTLTISSLQPEDFATYYCAQAGTHPTTFGQGTKVEIKR"
  u: "M⁻¹ s⁻¹"
  kon: 180000
- binder: "DMS0134 (bispecific antibody, anti-TNFR1 dAb / AlbudAb in-line fusion) EVQLLESGGGLVQPGGSLRLSCAASGFTFFKYSMGWVRQAPGKGLEWVSQISDTADRTYYAHSVKGRFTISRDNSKNTLYLQMNSLRAEDTAVYYCAIYTGRWVPFEYWGQGTLVTVSSASTDIQMTQSPSSLSASVGDRVTITCRASRPIGTTLSWYQQKPGKAPKLLILWNSRLQSGVPSRFSGSGSGTDFTLTISSLQPEDFATYYCAQAGTHPTTFGQGTKVEIKR"
  u: "M⁻¹ s⁻¹"
  kon: 190000

Please turn your attention to the following entry.
What value of measured kon is listed for DMS0132 (bispecific antibody, anti-TNFR1 dAb / AlbudAb in-line fusion) EVQLLESGGGLVQPGGSLRLSCAASGFTFVKYSMGWVRQAPGKGLEWVSQISDTADRTYYAHSVKGRFTISRDNSKNTLYLQMNSLRAEDTAVYYCAIYTGRWVPFEYWGQGTLVTVSSASTDIQMTQSPSSLSASVGDRVTITCRASRPIGTTLSWYQQKPGKAPKLLILWNSRLQSGVPSRFSGSGSGTDFTLTISSLQPEDFATYYCAQAGTHPTTFGQGTKVEIKR ?
190000
